Where do the numbers come from? From ChEMBL document CHEMBL5260848.

Target: Carbonic anhydrase 1 (Homo sapiens)
Sequence (P00915 whole entry): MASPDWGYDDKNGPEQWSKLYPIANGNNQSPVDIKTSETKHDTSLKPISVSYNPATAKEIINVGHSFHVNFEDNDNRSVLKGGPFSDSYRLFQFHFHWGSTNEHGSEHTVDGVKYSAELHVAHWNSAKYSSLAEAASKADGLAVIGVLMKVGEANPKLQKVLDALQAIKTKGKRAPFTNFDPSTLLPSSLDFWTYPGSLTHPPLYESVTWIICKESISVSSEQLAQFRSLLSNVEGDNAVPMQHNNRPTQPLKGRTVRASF
pKi: −log10 of the molar value.
Classification field: condition met = pKi at or over 7; condition not met = pKi under 7.

# MOLECULE, GROUP
rows = [
    ("NS(=O)(=O)c1ccc(N2N=C(c3ccc([N+](=O)[O-])cc3)CC2c2ccccc2)cc1 (configuration not stated)", "condition not met"),
    ("NS(=O)(=O)c1ccc(N2N=C(c3ccc(Br)cc3)CC2c2cccs2)cc1 (configuration not stated)", "condition not met"),
    ("NS(=O)(=O)c1ccc(N2N=C(c3ccc(F)cc3)CC2c2cccs2)cc1 (configuration not stated)", "condition not met"),
    ("COc1ccc(C2=NN(c3ccc(S(N)(=O)=O)cc3)C(c3ccccc3)C2)cc1 (configuration not stated)", "condition not met"),
    ("COc1ccc(C2=NN(c3ccc(S(N)(=O)=O)cc3)C(c3ccc(OC)c(OC)c3)C2)cc1 (configuration not stated)", "condition met"),
    ("COc1ccc(C2=NN(C(=O)c3ccc(S(N)(=O)=O)cc3)C(c3cc(OC)c(OC)c(OC)c3)C2)cc1OC (configuration not stated)", "condition not met"),
    ("COc1cc(/C=C/C(=O)c2ccc(Br)cc2)cc(OC)c1OC", "condition met"),
    ("NS(=O)(=O)c1ccc(N2N=C(c3ccccc3)CC2c2cccs2)cc1 (configuration not stated)", "condition not met"),
    ("NS(=O)(=O)c1ccc(N2N=C(c3ccc(F)cc3)CC2c2ccccc2)cc1 (configuration not stated)", "condition not met"),
    ("COc1ccc(C2CC(c3ccc(OC)cc3OC)=NN2C(=O)c2ccc(S(N)(=O)=O)cc2)cc1 (configuration not stated)", "condition not met"),
]
